System: RXF 393 renal
Assay: NCI-60 one-dose screen, 48 h (100 = growth as untreated, 0 = no growth, -100 = all killed)
Details: 10 µM unless noted
This is part of a sample that, as a whole, favours compounds with a hit. Of some 83,000 tested, about 20% had one in any assay.
# label = bin(measured growth), where bins are A (below -40%), B (-40% to below 40%), C (40% or more)

Before answering, review these 3 worked examples.
>>> category("C#C[C@]1(O)CC[C@H]2[C@@H]3CC=C4c5sc(NCc6ccccc6)nc5CC[C@]4(C)[C@H]3CC[C@@]21C")
"B"
>>> category("CN1CCN(c2ccc(Nc3nc(NCCCNS(=O)(=O)c4ccccc4)c4sccc4n3)cc2)CC1")
"B"
>>> category("COC(=O)CCSC1=C(C)C(=O)c2ccccc2C1=O")
"C"

Problem: Field: class (growth) — entry: CCOC(=O)Nc1ccc2c(ccn2C(=O)c2cccc(F)c2)c1
Solution: B

Problem: Can you handle CCOC(=O)c1c(NC(=O)c2ccc(C(F)(F)F)cc2)sc2c(CN3CCN(C)CC3)c(O)ccc12 next?
Solution: A

All values here come from PubChem BioAssay (NCI).
